// data source = paper PMC10485979

- system.under.test: norepinephrine transporter (NET) (Homo sapiens, UniProt P23975)
- Construct: human NET expressed in transfected HEK293 cells
- Sequence (P23975 whole entry): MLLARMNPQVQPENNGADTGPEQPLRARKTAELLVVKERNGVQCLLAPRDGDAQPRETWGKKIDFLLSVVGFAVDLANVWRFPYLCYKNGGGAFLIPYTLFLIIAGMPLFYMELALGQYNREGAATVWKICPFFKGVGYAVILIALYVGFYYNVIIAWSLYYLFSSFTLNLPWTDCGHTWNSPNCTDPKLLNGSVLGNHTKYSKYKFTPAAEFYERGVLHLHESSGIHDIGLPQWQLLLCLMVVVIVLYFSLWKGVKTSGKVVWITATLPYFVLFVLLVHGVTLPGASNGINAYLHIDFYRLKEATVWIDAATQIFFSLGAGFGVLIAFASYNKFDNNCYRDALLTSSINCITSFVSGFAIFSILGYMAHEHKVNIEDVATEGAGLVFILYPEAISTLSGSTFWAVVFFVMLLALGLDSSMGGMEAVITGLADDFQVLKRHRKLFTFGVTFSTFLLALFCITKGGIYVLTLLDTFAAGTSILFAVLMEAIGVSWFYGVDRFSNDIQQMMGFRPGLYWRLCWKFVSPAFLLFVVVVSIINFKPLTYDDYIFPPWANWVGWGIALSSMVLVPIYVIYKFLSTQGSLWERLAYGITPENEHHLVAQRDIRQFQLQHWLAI
- experimental.protocol: inhibition of mIBG internalization in HEK-NET cells, LC-MS/MS quantification
outcome.measure: IC50 (µM)
Note: unit µM is implicit; provide only the numeric part.

Consider the molecule shown here: `c1ccc(CCCN2CCN(CCOC(c3ccccc3)c3ccccc3)CC2)cc1` What is its recorded IC50?
3.61
